These data points were gathered from the Human Domainome abundance scans (Beltran et al. 2025).

B1: Far upstream element-binding protein 3, residues 75 to 150; numbered along this chain, Q96I24 (parent)
chain: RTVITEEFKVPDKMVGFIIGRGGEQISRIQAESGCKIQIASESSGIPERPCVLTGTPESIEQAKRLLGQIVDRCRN

Variants of: B1
Assay: abundance fitness (aPCA) (normalised: wild type 0, dead -1); higher = more abundant; growth selection in yeast, the domain comes from the species named
Conditions: Homo sapiens
Recorded abundance fitness by entry
Returns: the value as a bare number; no unit string appended.

Recorded results for 5 variants are shown here.
RTVITEEFKVPDKMVGFIIGRGGEQISRIQAESGCKIQIASESSGIPERPCVLTQTPESIEQAKRLLGQIVDRCRN [G55Q]: -1.18
RTVITEEFKVPDKMVGFIIGRGGEQISRIQAESGCKIQIASESSGIPERPCVLTGTPESIEQAKRLLPQIVDRCRN [G68P]: -0.723
RTVITEEFKVPDKMVGFIIGRGGEQISRIQAESGCKIQIASESSGIPERPCVLTGTPESIEQAKSLLGQIVDRCRN [R65S]: -0.026
RTVITEEFAVPDKMVGFIIGRGGEQISRIQAESGCKIQIASESSGIPERPCVLTGTPESIEQAKRLLGQIVDRCRN [K9A]: -0.006
RTVITEEFKVPDKMVGFIIGRGGEQISRWQAESGCKIQIASESSGIPERPCVLTGTPESIEQAKRLLGQIVDRCRN [I29W]: -0.521

[Q] Look up abundance fitness for this variant: RTVITQEFKVPDKMVGFIIGRGGEQISRIQAESGCKIQIASESSGIPERPCVLTGTPESIEQAKRLLGQIVDRCRN [E6Q]
[A] -0.068

[Q] Look up abundance fitness for this variant: RTVNTEEFKVPDKMVGFIIGRGGEQISRIQAESGCKIQIASESSGIPERPCVLTGTPESIEQAKRLLGQIVDRCRN [I4N]
[A] -0.081

[Q] Look up abundance fitness for this variant: RTVITEEFKVPDKMVGFLIGRGGEQISRIQAESGCKIQIASESSGIPERPCVLTGTPESIEQAKRLLGQIVDRCRN [I18L]
[A] -0.085

[Q] Look up abundance fitness for this variant: RTVITEEFKVPDKMVGFIIGRGGEQISRIQAESGCKIQIASESSGIPERPCVLTGTLESIEQAKRLLGQIVDRCRN [P57L]
[A] -0.112

[Q] Look up abundance fitness for this variant: RTVITEEFKVPDKMVGFIIGRGGEQISRIQATSGCKIQIASESSGIPERPCVLTGTPESIEQAKRLLGQIVDRCRN [E32T]
[A] -0.055

[Q] Look up abundance fitness for this variant: RTVITEEFKVPDKMVGFIIGRGGEQISRIQAESGCKCQIASESSGIPERPCVLTGTPESIEQAKRLLGQIVDRCRN [I37C]
[A] -0.239

[Q] Look up abundance fitness for this variant: RTVITEEFKVPDKMVGFIISRGGEQISRIQAESGCKIQIASESSGIPERPCVLTGTPESIEQAKRLLGQIVDRCRN [G20S]
[A] -0.151

[Q] Look up abundance fitness for this variant: RTVITKEFKVPDKMVGFIIGRGGEQISRIQAESGCKIQIASESSGIPERPCVLTGTPESIEQAKRLLGQIVDRCRN [E6K]
[A] -0.018

[Q] Look up abundance fitness for this variant: RTVITEEFKVPDGMVGFIIGRGGEQISRIQAESGCKIQIASESSGIPERPCVLTGTPESIEQAKRLLGQIVDRCRN [K13G]
[A] -0.027

[Q] Look up abundance fitness for this variant: RTAITEEFKVPDKMVGFIIGRGGEQISRIQAESGCKIQIASESSGIPERPCVLTGTPESIEQAKRLLGQIVDRCRN [V3A]
[A] -0.064

[Q] Look up abundance fitness for this variant: RTVITEEFDVPDKMVGFIIGRGGEQISRIQAESGCKIQIASESSGIPERPCVLTGTPESIEQAKRLLGQIVDRCRN [K9D]
[A] -0.129

[Q] Look up abundance fitness for this variant: RTVITEEFKVPDKMVGFIIGNGGEQISRIQAESGCKIQIASESSGIPERPCVLTGTPESIEQAKRLLGQIVDRCRN [R21N]
[A] 0.004

[Q] Look up abundance fitness for this variant: RTVITEEFKVPDKMVGFIIGRGGEQISRIQAESGCKIQIASESSGIPERPCVLTGTPESIEQAKRLIGQIVDRCRN [L67I]
[A] -0.131
